Test system: Vero
Protocol Details: Cytotoxicity against african green monkey Vero cells after 20 hrs by MTS assay
Type: cell-based
Setup Conditions: Chlorocebus sabaeus
Value Kind: IC50 (µM)
Could you give me the number in µM? Just the number is fine.

Below are worked cases with known answers.
Compound: CN(C)C(=O)[C@@H]1C[C@H](c2ccc3ccc4cccc5ccc2c3c45)N(C)O1 (racemic)
Units Of Measure: µM
IC50: 163
//
Compound: CN(C)C(=O)[C@H]1C[C@H](c2ccc3ccc4cccc5ccc2c3c45)N(Cc2ccccc2)O1 (racemic)
Units Of Measure: µM
IC50: 42
//
Compound: CN(C)C(=O)[C@H]1CON(Cc2ccccc2)[C@H]1c1ccc2ccc3cccc4ccc1c2c34 (racemic)
Units Of Measure: µM
IC50: 151
//
Compound: CN(C)C(=O)[C@H]1C[C@H](c2cc3ccccc3c3ccccc23)N(C)O1
Units Of Measure: µM
IC50: 160
//
Compound: CN(C)C(=O)[C@H]1C[C@H](c2cc3ccccc3c3ccccc23)N(Cc2ccccc2)O1 (racemic)
Units Of Measure: µM
IC50: 115
//
Compound: CN(C)C(=O)C1CC(c2ccc3ccc4cccc5ccc2c3c45)=NO1 (stereo unspecified)
Units Of Measure: µM
IC50: 160
//
Compound: CN(C)C(=O)c1cc(-c2ccc3ccc4cccc5ccc2c3c45)no1
Units Of Measure: µM
IC50: 165
//
Compound: CN(C)C(=O)[C@H]1C[C@H](c2ccc3ccc4cccc5ccc2c3c45)N(C)O1 (racemic)
Units Of Measure: µM
IC50: 141

The record that follows has no IC50 shown yet.
For the compound shown here, CN(C)C(=O)[C@@H]1CON(C)[C@H]1c1ccc2ccc3cccc4ccc1c2c34 (racemic) , give the reported IC50.
143

---

// pIC50 lookup, one value per entry
Test system: THP-1
Protocol Details: Cytotoxicity against human THP1 cells after 20 hrs by MTS assay
Format: functional, cell-based
Setup Conditions: THP-1, 20 h
Please report pIC50 as the negative decimal logarithm of the molar concentration, giving only the number.

Solved entries:
Compound: CN(C)C(=O)C1CC(c2ccc3ccc4cccc5ccc2c3c45)=NO1 (stereo unspecified)
pIC50: 4.16
--
Compound: CN(C)C(=O)[C@H]1C[C@H](c2cc3ccccc3c3ccccc23)N(C)O1
pIC50: 4.02
--
Compound: CN(C)C(=O)c1cc(-c2cc3ccccc3c3ccccc23)no1
pIC50: 3.39
--
Compound: CN(C)C(=O)[C@H]1C[C@H](c2ccc3ccc4cccc5ccc2c3c45)N(Cc2ccccc2)O1 (racemic)
pIC50: 5.22

Any idea what its pIC50 is? The compound is CN(C)C(=O)[C@H]1C[C@H](c2ccc3ccc4cccc5ccc2c3c45)N(C)O1 (racemic)
4.22

---

Tested on: A549
Protocol Details: Cytotoxicity against human A549 cells after 20 hrs by SRB assay
Type: functional, cell-based
Setup Conditions: A549, 20 h
Value Kind: log10 IC50 (log10 of the value in µM)
Could you please treat all values as log10 of IC50 in µM?

Example results:
Molecule: CN(C)C(=O)[C@H]1CON(Cc2ccccc2)[C@H]1c1ccc2ccc3cccc4ccc1c2c34 (racemic)
log10 IC50: 1.80
//
Molecule: CN(C)C(=O)[C@H]1C[C@H](c2cc3ccccc3c3ccccc23)N(Cc2ccccc2)O1 (racemic)
log10 IC50: 1.00
//
Molecule: CN(C)C(=O)[C@@H]1C[C@H](c2ccc3ccc4cccc5ccc2c3c45)N(C)O1 (racemic)
log10 IC50: 1.74
//
Molecule: CN(C)C(=O)c1cc(-c2cc3ccccc3c3ccccc23)no1
log10 IC50: 2.53
//
Molecule: CN(C)C(=O)[C@H]1C[C@H](c2cc3ccccc3c3ccccc23)N(C)O1
log10 IC50: 1.83

Tell me reported log10 IC50 for CN(C)C(=O)[C@H]1C[C@H](c2ccc3ccc4cccc5ccc2c3c45)N(Cc2ccccc2)O1 (racemic) , tested with A549.
0.60

Same for `CN(C)C(=O)c1cc(-c2ccc3ccc4cccc5ccc2c3c45)no1`
1.78

Entry to check: CN(C)C(=O)[C@@H]1CON(C)[C@H]1c1ccc2ccc3cccc4ccc1c2c34 (racemic)
1.64
